# Target Entity: rat C17,20-lyase (Rattus norvegicus)
# Sequence (P11715 1-507): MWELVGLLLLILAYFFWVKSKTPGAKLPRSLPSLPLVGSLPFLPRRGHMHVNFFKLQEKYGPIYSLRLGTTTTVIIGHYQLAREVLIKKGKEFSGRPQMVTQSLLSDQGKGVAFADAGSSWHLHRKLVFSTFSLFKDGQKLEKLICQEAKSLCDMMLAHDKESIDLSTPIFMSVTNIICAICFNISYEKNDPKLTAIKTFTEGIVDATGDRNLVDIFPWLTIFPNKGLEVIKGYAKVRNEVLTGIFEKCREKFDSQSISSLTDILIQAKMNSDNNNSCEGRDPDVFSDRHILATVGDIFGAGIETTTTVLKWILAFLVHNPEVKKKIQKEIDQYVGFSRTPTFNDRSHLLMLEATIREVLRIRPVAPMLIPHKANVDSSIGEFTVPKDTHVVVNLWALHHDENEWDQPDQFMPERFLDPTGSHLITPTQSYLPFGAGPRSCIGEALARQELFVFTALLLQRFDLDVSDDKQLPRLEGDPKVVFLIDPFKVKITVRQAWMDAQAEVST
Measurement Label: Ki
Form entry: enter the amount, then its unit.

Q: Looking for the measured Ki of C[C@H](C=NO)[C@H]1CC[C@H]2[C@@H]3CCC4=CC(=O)CC[C@]4(C)[C@H]3CC[C@]12C , can you help?
Ans: 0.018 µM

* * *

I'd be grateful if you could share measured IC50 for these entries.
# Target Entity: Human Testicular 17α-Hydroxylase (Homo sapiens)
# Construct: incubating human testicular microsomes; from tissue; host or cells: human testis, microsomes
# Protocol Text: Inhibition of human testicular 17α-hydroxylase (pregnenolone substrate, testicular microsomes)
# Assay type: biochemical
# Assay Context: Table 3; first figure of 17α-hydroxylase/lyase pair; read-out: IC50 17α-hydroxylase
Write the number in nM without appending the unit.

Q: Lookup: IC50 / Human Testicular 17α-Hydroxylase (Homo sapiens) / C[C@]12CC[C@H]3[C@@H](CC=C4C[C@@H](O)CC[C@@]43C)[C@@H]1CC[C@@H]2c1c[nH]cn1
Ans: 25.2

Q: Value wanted: IC50 (Human Testicular 17α-Hydroxylase (Homo sapiens)) of entry CC(=O)O[C@H]1CC[C@@]2(C)C(=CC[C@@H]3[C@@H]2CC[C@]2(C)C(c4c[nH]cn4)=CC[C@@H]32)C1
Ans: 74.6

Q: # returns recorded IC50 (system: Human Testicular 17α-Hydroxylase (Homo sapiens)) for CC(=NO)C1=CC[C@H]2[C@@H]3CCC4=CC(=O)CC[C@]4(C)[C@H]3CC[C@]12C [Compound L-2, 16-dehydroprogesterone-20-oxime]
Ans: 8.65

Q: Can you look up IC50 on Human Testicular 17α-Hydroxylase (Homo sapiens) for C[C@]12CCC(=O)C=C1CC[C@@H]1[C@@H]2CC[C@]2(C)C(c3c[nH]cn3)=CC[C@@H]12 ?
Ans: 15.6

Q: Form entry - test system: Human Testicular 17α-Hydroxylase (Homo sapiens); read-out: IC50; compound: C[C@]12CC[C@H](O)CC1=CC[C@@H]1[C@@H]2CC[C@]2(C)C(c3c[nH]cn3)=CC[C@@H]12
Ans: 8.82

Q: Please state recorded IC50 (tested on Human Testicular 17α-Hydroxylase (Homo sapiens)) of C[C@]12CC[C@H]3[C@@H](CCC4=CC(=O)CC[C@@]43C)[C@@H]1CC[C@@H]2c1c[nH]cn1
Ans: 59.4

* * *

# Target Entity: Human Testicular 17α-Hydroxylase (Homo sapiens, UniProt P05093)
# Construct: incubating human testicular microsomes; from tissue; host or cells: human testis, microsomes
# Sequence (P05093 1-508): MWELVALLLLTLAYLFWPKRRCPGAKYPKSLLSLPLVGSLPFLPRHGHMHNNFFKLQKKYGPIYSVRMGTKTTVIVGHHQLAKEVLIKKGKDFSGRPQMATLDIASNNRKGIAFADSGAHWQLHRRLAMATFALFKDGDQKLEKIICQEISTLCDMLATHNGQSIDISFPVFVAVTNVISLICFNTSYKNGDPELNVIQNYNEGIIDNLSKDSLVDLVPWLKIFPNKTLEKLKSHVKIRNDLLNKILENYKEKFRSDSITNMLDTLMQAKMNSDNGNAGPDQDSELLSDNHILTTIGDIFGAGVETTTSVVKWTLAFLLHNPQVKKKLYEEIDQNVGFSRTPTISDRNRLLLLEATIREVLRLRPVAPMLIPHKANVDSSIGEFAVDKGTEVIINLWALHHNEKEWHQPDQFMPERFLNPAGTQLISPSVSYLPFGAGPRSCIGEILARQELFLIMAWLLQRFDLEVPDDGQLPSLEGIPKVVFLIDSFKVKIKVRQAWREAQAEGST
# Protocol Text: Inhibition of human testicular 17α-hydroxylase (pregnenolone substrate, testicular microsomes)
# Type: biochemical
# Assay Context: read-out: % Inhibition 17α-hydroxylase, [I] = 400 nM
Measurement Label: inhibition at 0.4 µM
Answers without a unit are incomplete; give the number and then its unit.

Q: Given the molecule C[C@@H](O)C1=CC[C@H]2[C@@H]3CC=C4C[C@@H](O)CC[C@]4(C)[C@H]3CC[C@]12C [Compound L-8] , what is its reported inhibition at 0.4 µM?
Ans: 82.7%

Q: If you can, please state the reported inhibition at 0.4 µM value of CC1N[C@@]12CC[C@H]1[C@@H]3CC=C4C[C@@H](O)CC[C@]4(C)[C@H]3CC[C@@]12C (stereo partly drawn) [Compound L-21] .
Ans: 23.7%

Q: If you can, please state the reported inhibition at 0.4 µM value of C[C@@H](O)C1=CC[C@H]2[C@@H]3CCC4=CC(=O)CC[C@]4(C)[C@H]3CC[C@]12C [Compound L-10, 20β-hydroxy-pregna-4,16-dien-3-one] .
Ans: 8.19%

Q: Which inhibition at 0.4 µM is listed for CC1N[C@]12CC[C@H]1[C@@H]3CC=C4C[C@@H](O)CC[C@]4(C)[C@H]3CC[C@@]12C (stereo partly drawn) [Compound L-22] ?
Ans: 0%

Q: Please give the measured inhibition at 0.4 µM for this molecule: Cc1nc([C@H]2CC[C@H]3[C@@H]4CC=C5C[C@@H](O)CC[C@]5(C)[C@H]4CC[C@]23C)c[nH]1 [Compound L-4]
Ans: 41.9%

* * *

# Target Entity: Human Testicular 17α-Hydroxylase (Homo sapiens, UniProt P05093)
# Construct: incubating human testicular microsomes; from tissue; host or cells: human testis, microsomes
# Sequence (P05093 1-508): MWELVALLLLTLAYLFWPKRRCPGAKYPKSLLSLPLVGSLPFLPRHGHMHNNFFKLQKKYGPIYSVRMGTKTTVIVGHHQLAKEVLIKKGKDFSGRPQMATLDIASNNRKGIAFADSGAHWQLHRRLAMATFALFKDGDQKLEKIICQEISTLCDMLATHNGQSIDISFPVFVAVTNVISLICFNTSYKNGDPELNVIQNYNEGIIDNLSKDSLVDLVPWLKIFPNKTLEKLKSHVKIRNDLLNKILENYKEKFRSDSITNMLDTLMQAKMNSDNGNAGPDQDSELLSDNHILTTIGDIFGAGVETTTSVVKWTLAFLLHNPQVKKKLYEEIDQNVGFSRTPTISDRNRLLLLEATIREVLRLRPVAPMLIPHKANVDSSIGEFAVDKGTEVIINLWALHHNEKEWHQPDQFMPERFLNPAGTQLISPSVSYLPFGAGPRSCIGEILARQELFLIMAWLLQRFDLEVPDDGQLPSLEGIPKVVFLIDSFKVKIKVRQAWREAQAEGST
# Protocol Text: Inhibition of human testicular 17α-hydroxylase (pregnenolone substrate, testicular microsomes)
# Type: biochemical
# Assay Context: Table 1; NI = no inhibition; read-out: IC50 17α-OHase
Measurement Label: IC50

Q: Recorded IC50 for CC(=O)[C@@]1(Br)CC[C@H]2[C@@H]3CC=C4C[C@@H](O)CC[C@]4(C)[C@H]3CC[C@@]21C , please?
Ans: 1300 nM

Q: Endpoint output: IC50 of CN(C=O)[C@H]1CC[C@H]2[C@@H]3CC=C4C[C@@H](O)CC[C@]4(C)[C@H]3CC[C@]12C . Value?
Ans: 290 nM

Q: What value of IC50 has been reported for the following compound? CC(=NO)C1=CC[C@H]2[C@@H]3CCC4=CC(=O)CC[C@]4(C)[C@H]3CC[C@]12C [Compound L-2, 16-dehydroprogesterone-20-oxime]
Ans: 8.7 nM

* * *

# Target Entity: UniProt:P31213
# Sequence (P31213 whole entry): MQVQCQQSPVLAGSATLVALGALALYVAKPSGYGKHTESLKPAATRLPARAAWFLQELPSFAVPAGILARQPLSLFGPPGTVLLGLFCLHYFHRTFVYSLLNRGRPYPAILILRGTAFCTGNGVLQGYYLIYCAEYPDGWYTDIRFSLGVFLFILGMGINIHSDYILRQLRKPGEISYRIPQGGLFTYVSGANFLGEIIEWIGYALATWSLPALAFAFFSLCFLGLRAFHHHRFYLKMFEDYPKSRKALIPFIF
# Protocol Text: Inhibition of human prostatic 5α-reductase (prostatic microsomes, [3H]testosterone)
# Assay Context: read-out: % Inhibition of 5α-reductase, [I] 400 nM
Measurement Label: inhibition at 0.4 µM (%)
Record the value in %, omitting the unit from your answer.

Q: Bench note: what inhibition at 0.4 µM did CC(=O)C1=CC[C@H]2[C@@H]3CCC4=CC(=O)CC[C@]4(C)[C@H]3CC[C@]12C [Compound L-13, 16-dehydroprogesterone] show?
Ans: 96.4

Q: # input compound: C=C1CC2C3CCC(OC(C)=O)C3(C)CCC2C2(C)CCC(=O)CC12 [Compound L-14, 17β-Acetoxy-6-methylene-5α-androst-3-one] ; wanted: its inhibition at 0.4 µM
Ans: 11.4

Q: Give the measured inhibition at 0.4 µM of C[C@]12CC[C@H]3[C@@H](CCC4=CC(=O)CC[C@@]43C)[C@@H]1CC[C@@H]2c1ncc[nH]1 [Compound L-3] .
Ans: 61.7

Q: Recorded inhibition at 0.4 µM of CC(C)(C)NC(=O)[C@H]1CC[C@H]2[C@@H]3CC[C@H]4NC(=O)C=C[C@]4(C)[C@H]3CC[C@]12C [Finasteride, reference compound] , please.
Ans: 93

Q: For C[C@]12CC[C@H]3[C@@H](CC[C@]45CC(=O)CC[C@]34[C@H]5O)[C@@H]1CC[C@@H]2O [Compound L-19] , what is its reported inhibition at 0.4 µM?
Ans: 14.8

Q: What value of measured inhibition at 0.4 µM is listed for C[C@]12CC[C@H]3[C@@H](CC[C@]45CC(=O)CC[C@]34[C@@H]5O)[C@@H]1CCC2=O [Compound L-20] ?
Ans: 12.2

Values from patent US5994334A
